// provenance: patent US20250206761A1

target desc: KRAS G12V binding to BRAF (Homo sapiens (Human), UniProt P01116+P62937, G12V)
Sequence (P01116-2 other isoform, or with tags, fused parts or gaps G12V): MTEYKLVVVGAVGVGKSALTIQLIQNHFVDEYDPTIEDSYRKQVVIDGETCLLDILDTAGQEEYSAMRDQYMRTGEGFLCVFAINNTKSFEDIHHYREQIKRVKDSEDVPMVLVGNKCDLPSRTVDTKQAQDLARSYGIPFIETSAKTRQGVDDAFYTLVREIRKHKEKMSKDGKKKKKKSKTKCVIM
Sequence (P62937 whole entry): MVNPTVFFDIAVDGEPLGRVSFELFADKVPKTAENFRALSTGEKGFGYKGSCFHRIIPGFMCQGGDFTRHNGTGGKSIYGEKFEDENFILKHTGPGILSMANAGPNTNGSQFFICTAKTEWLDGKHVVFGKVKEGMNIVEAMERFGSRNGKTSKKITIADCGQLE
measurement description: KRAS-BRAF with CYPA (500 nM) interaction assay (TR-FRET), G12V
pIC50: −log10 of the molar value.

compound: CO[C@@H](C)c1ncc(N2CCN(C)CC2)cc1-c1c2c3cc(c(F)cc3n1CC(F)(F)F)-c1csc(n1)C[C@H](NC(=O)[C@H](C(C)C)N(C)C(=O)[C@H]1CCN(C(=O)[C@H](F)Cl)C1)C(=O)N1CCC[C@H](N1)C(=O)OCC(C)(C)C2 (atropisomer, axis not shown; (M))
target desc: KRAS G12V binding to BRAF (Homo sapiens (Human), UniProt P01116+P62937, G12V)
value relation sign: =
pIC50: 5.73
//
compound: CCn1c(-c2cc(N3CCOCC3)cnc2[C@H](C)OC)c2c3cc(c(F)cc31)-c1csc(n1)C[C@H](NC(=O)[C@H](C(C)C)N(C)C(=O)[C@H]1CCN(C(=O)[C@H](F)Cl)C1)C(=O)N1CCC[C@H](N1)C(=O)OCC(C)(C)C2 (atropisomer, axis not shown; (M))
target desc: KRAS G12V binding to BRAF (Homo sapiens (Human), UniProt P01116+P62937, G12V)
value relation sign: =
pIC50: 5.67
//
compound: CCn1c(-c2cc(N3CCN(CC(F)(F)F)CC3)cnc2[C@H](C)OC)c2c3cc(c(F)cc31)-c1csc(n1)C[C@H](NC(=O)[C@H](C(C)C)N1CCC3(CCN(C(=O)[C@H](F)Cl)CC3)C1=O)C(=O)N1CCC[C@H](N1)C(=O)OCC(C)(C)C2 (atropisomer, axis not shown; (M))
target desc: KRAS G12V binding to BRAF (Homo sapiens (Human), UniProt P01116+P62937, G12V)
value relation sign: <
pIC50: 5.00

###

target desc: KRAS G12V binding to BRAF (Homo sapiens (Human), UniProt P01116+P62937, G12V)
measurement description: KRAS-BRAF with CYPA (500 nM) interaction assay (TR-FRET), G12V
Readings of IC50 for the listed compounds
assay readout: IC50

compound: CCn1c(-c2cc(N3CCOCC3)cnc2[C@H](C)OC)c2c3cc(c(F)cc31)-c1csc(n1)C[C@H](NC(=O)[C@H](C(C)C)N1CCC3(CCN(C(=O)[C@H](F)Cl)CC3)C1=O)C(=O)N1CCC[C@H](N1)C(=O)OCC(C)(C)C2 (atropisomer, axis not shown; (M)) [Example 50]
target desc: KRAS G12V binding to BRAF (Homo sapiens (Human), UniProt P01116+P62937, G12V)
value measured: > 10 µM

compound: CCn1c(-c2cc(N3CCN(CC(F)(F)F)CC3)cnc2[C@H](C)OC)c2c3cc(c(F)cc31)-c1csc(n1)C[C@H](NC(=O)[C@H](C(C)C)N1CCCC3(CCN(C(=O)[C@H](F)Cl)CC3)C1=O)C(=O)N1CCC[C@H](N1)C(=O)OCC(C)(C)C2 (atropisomer, axis not shown; (M)) [Example 48]
target desc: KRAS G12V binding to BRAF (Homo sapiens (Human), UniProt P01116+P62937, G12V)
value measured: > 10 µM

compound: CO[C@@H](C)c1ncc(N2CCN(C)CC2)cc1-c1c2c3cc(c(F)cc3n1CC(F)(F)F)-c1csc(n1)C[C@H](NC(=O)[C@H](C(C)C)N1CCC[C@@]3(CCN(C(=O)[C@H](F)Cl)C3)C1=O)C(=O)N1CCC[C@H](N1)C(=O)OCC(C)(C)C2 (single isomer, unassigned) [Example 16]
target desc: KRAS G12V binding to BRAF (Homo sapiens (Human), UniProt P01116+P62937, G12V)
value measured: > 10 µM
